- Tested on: Streptococcus pneumoniae 1175
- Type: cell-based
- test_parameters: S. pneumoniae 1175 (mefA); microtiter broth dilution
endpoint_label: MIC S. pneumo. 1175 (µg/mL)
Numbers only; they are read as µg/mL.

Recorded MIC S. pneumo. 1175, per entry:
compound: CC[C@H]1OC(=O)[C@H](C)C(=O)[C@H](C)[C@@H](O[C@@H]2O[C@H](C)C[C@H](N(C)C)[C@H]2O)[C@](C)(OC)C[C@@H](C)C(=O)[C@H](C)[C@H]2N(CC3(O)CN(C(=O)c4nc5ccccc5[nH]4)C3)C(=O)O[C@]12C.O=CO [7.28]
result_number: 0.25
--
compound: CCC1OC(=O)C(C)C(=O)C(C)C(OC2OC(C)CC(N(C)C)C2O)C(C)(OC)CC(C)C(=O)C(C)C2N(CC3CCN(Cc4cccnc4OC)C3)C(=O)OC12C (stereo not drawn) [11.09]
result_number: 16

Consider the compound shown here: CCC1OC(=O)C(C)C(=O)C(C)C(OC2OC(C)CC(N(C)C)C2O)C(C)(OC)CC(C)C(=O)C(C)C2N(CC3CCCN3C(=O)c3cnc4ccccc4c3)C(=O)OC12C (stereo not drawn) [10.07] What is its recorded MIC S. pneumo. 1175? 0.25
